Test system: Pseudomonas aeruginosa ATCC 9027
Test: ≥ marks a high value that may be exact or a test limit, other limits are often not marked, values filed in µg/mL are converted to µM
Labelling field: enter TRUE if recorded MIC is less than 40 µM. Enter FALSE if it equals or exceeds that cut-off.

Examples from the recorded data:
compound	class_name
CC(C)C[C@H](NC(=O)[C@H](CCCCN)NC(=O)[C@H](CCCCN)NC(=O)[C@H](CC(C)C)NC(=O)[C@H](C)NC(=O)[C@H](CCCCN)NC(=O)[C@H](CC(C)C)NC(=O)[C@H](C)NC(=O)[C@H](CCCCN)NC(=O)[C@H](CCCCN)NC(=O)[C@H](C)NC(=O)[C@@H](N)Cc1ccccc1)C(N)=O [FAKKALKALKKL]	FALSE
CC[C@H](C)[C@H](NC(=O)[C@@H](NC(=O)[C@H](Cc1c[nH]c2ccccc12)NC(=O)[C@@H](NC(=O)[C@@H](N)CCCN=C(N)N)[C@@H](C)CC)C(C)C)C(=O)N[C@@H](Cc1c[nH]c2ccccc12)C(=O)N[C@@H](CCCN=C(N)N)C(=O)N[C@@H](CCCN=C(N)N)C(N)=O [RIWVIWRR]	TRUE
CC[C@H](C)[C@H](NC(=O)[C@H](CCCCN)NC(=O)[C@H](CCCCN)NC(=O)[C@H](C)NC(=O)[C@@H](NC(=O)[C@H](C)NC(=O)[C@H](CC(C)C)NC(=O)[C@H](CC(C)C)NC(=O)[C@H](C)NC(=O)[C@H](CCCCN)NC(=O)[C@H](CC(C)C)NC(=O)[C@H](CC(N)=O)NC(=O)[C@@H](N)CCCCN)C(C)C)C(=O)N[C@@H](CC(C)C)C(N)=O [KNLKALLAVAKKIL]	TRUE
CC(C)C[C@H](NC(=O)[C@H](C)NC(=O)[C@H](CCCCN)NC(=O)[C@H](CCCCN)NC(=O)[C@H](C)NC(=O)[C@H](CC(C)C)NC(=O)[C@H](CCCCN)NC(=O)[C@H](C)NC(=O)[C@H](CC(C)C)NC(=O)[C@H](CC(C)C)NC(=O)[C@H](CCCCN)NC(=O)[C@H](C)NC(=O)[C@@H](N)Cc1ccccc1)C(N)=O [FAKLLAKLAKKAL]	TRUE
CC(C)C[C@H](NC(=O)[C@H](CCCCN)NC(=O)[C@H](CC(C)C)NC(=O)[C@H](CCCCN)NC(=O)[C@H](CC(C)C)NC(=O)[C@H](C)NC(=O)[C@H](CC(C)C)NC(=O)[C@H](C)NC(=O)[C@H](CC(C)C)NC(=O)[C@H](CC(C)C)NC(=O)[C@H](CCCCN)NC(=O)[C@H](C)NC(=O)[C@@H](N)Cc1ccccc1)C(N)=O [FAKLLALALKLKL]	FALSE

Field: below-cutoff. Rule: recorded MIC strictly less than 40 µM. Subject: CC(C)C[C@H](NC(=O)[C@H](CC(C)C)NC(=O)[C@H](C)NC(=O)[C@H](CCCCN)NC(=O)[C@H](C)NC(=O)[C@H](CC(C)C)NC(=O)[C@H](CCCCN)NC(=O)[C@H](CCCCN)NC(=O)[C@H](C)NC(=O)[C@@H](N)Cc1ccccc1)C(N)=O [FAKKLAKALL] FALSE

Lab note: confirm whether the reported MIC for this compound is below 40 µM, equality not counting. compound: NC(=O)[C@H](Cc1c[nH]c2ccccc12)NC(=O)[C@H](CCCN=C(N)N)NC(=O)[C@H](Cc1c[nH]c2ccccc12)NC(=O)[C@H](Cc1c[nH]c2ccccc12)NC(=O)[C@H](Cc1c[nH]c2ccccc12)NC(=O)[C@H](CCCN=C(N)N)NC(=O)[C@@H](N)Cc1c[nH]c2ccccc12 [WRWWWRW] TRUE
